Origin of values: paper PMC9352680

Target: T1, PUF4 RNA-binding domain (Saccharomyces cerevisiae, UniProt P25339 537-888)
T1 sequence: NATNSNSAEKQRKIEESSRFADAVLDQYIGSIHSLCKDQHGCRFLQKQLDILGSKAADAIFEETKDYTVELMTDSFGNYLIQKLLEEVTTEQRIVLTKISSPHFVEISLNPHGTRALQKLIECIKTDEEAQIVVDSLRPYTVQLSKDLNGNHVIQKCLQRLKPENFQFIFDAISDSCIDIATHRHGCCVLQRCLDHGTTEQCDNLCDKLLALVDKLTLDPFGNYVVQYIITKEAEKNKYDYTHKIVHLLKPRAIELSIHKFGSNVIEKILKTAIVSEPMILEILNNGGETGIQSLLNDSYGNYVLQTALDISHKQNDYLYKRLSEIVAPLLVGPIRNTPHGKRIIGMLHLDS
Experiment: Mg; RNA-MaP; 20 mM Na-HEPES pH 7.4, 30 mM KOAc, 0.75 mM MgCl2, 0.1% Tween-20, 5% glycerol, 0.1 mg/mL BSA, 2 mM DTT; 25 C; 0.0125-409.6 nM protein
Details: tags: N-His6-TEV cleaved; C-SNAP kept, Cy3B-labelled; label: tethered on chip by stalled RNA polymerase
measured_property: Kd (nM)
Numeric only. Scale: nM

Below: 8 binders and their reported Kd.
UCUCUUUGUAACCUCGUCUCUU (ssRNA) [Ic_S1_P5E.1_K5.1_C5.1_H5.1_A5.1_[T5A]_[T6C]_[A7C]_F5.1_[T9C]_[A10G]_T5.1]    123
UCUCUUUGUACUAAUCUCUU (ssRNA) [Ic_S1_P3E.1_K3.1_C3.1_H3.1_A3.1_[T5C]_[A6T]_F3.1_[T7A]_T3.1]    77.4
UCUCUUUGUAGCUGUCUCUU (ssRNA) [Ic_S1_P3E.1_K3.1_C3.1_H3.1_A3.1_[T5G]_[A6C]_F3.1_[A8G]_T3.1]    864
Ic_S2_P4E.1_K4.1_C4.1_H4.1_A4.1_[A6T]_[T7A]_F4.1_[A9G]_T4.1 (ssRNA) RNA: UUUGAUUAAUAUGAUAUCGUUCUUUCUUGUAUUAUGUUCUUUCUCGAUAUCAUAUUAAUCUUU    4.55
Ib_S2_P4E.1_K4.1_C4.1_H4.1_[G2A]_A4.1_[T7G]_F4.1_T4.1 (ssRNA) RNA: UUUGAUUAAUAUGAUAUCGUUCUUUCUUAUAUAGUAUUCUUUCUCGAUAUCAUAUUAAUCUUU    80.2
Ic_S2_P3E.1_K3.1_C3.1_H3.1_A3.1_[A6G]_F3.1_[T7C]_[A8C]_T3.1 (ssRNA) RNA: UUUGAUUAAUAUGAUAUCGUUCUUUCUUGUAUGCCUUCUUUCUCGAUAUCAUAUUAAUCUUU    585
UCUCUUAUACACUUAUUACUUCUCUU (ssRNA) [Id_ii_S1_P5E.4_K5.3_C5.2_[C-2A]_H5.3_A5.1_F5.1_T5.2_[T11C]_[A12T]]    666
Ic_S4_P5E.1_K5.1_C5.1_H5.1_A5.1_[A7C]_F5.1_[T8C]_[T9C]_T5.1 (ssRNA) RNA: UUUGACAACUGAUCGUUCUUUCUUGUAUUCCCAUUCUUUCUCGAUCAGUUGUCUUU    141

Now consider a different binder.
-- ask Item under review: Ic_S4_P5E.1_K5.1_C5.1_H5.1_A5.1_[T6A]_[A7C]_F5.1_[T8C]_[T9G]_[A10G]_T5.1 (ssRNA) RNA: UUUGACAACUGAUCGUUCUUUCUUGUAUACCGGUUCUUUCUCGAUCAGUUGUCUUU . Reported Kd?
-- reply 144
